Origin of the recorded values: a melting point compilation (Tetko et al.; mined from patent text by program, amines drawn as free bases though some values may be those of a salt)

Record form. Attribute: melting point. Fill in for each entry.

COMPOUND: O=C(c1cc(N2CCC(N3CCCC3)CC2)ccn1)N(O)Cc1ccccc1
RESULT: 135 to 140 °C
//
COMPOUND: COC(=O)COc1ccc(C(=O)NN(C)C(=O)OC(C)(C)C)cc1
RESULT: 158 to 159 °C
//
COMPOUND: COC1(OC)CCC(O)(c2ccc(C)cc2)CC1
RESULT: 93 to 97 °C
//
COMPOUND: Cc1c(C)c2c(c(C)c1OCc1ccc(S(C)(=O)=O)cc1)C(c1ccc(C(C)C)cc1)C(C)(C)O2 (centres undefined)
RESULT: 161 to 162 °C
//
COMPOUND: CCOC(=O)c1ccc(NCCCCc2cccs2)cc1
RESULT: 63 to 65 °C

Give melting point for each of the items listed below.
1. COc1cc(Cl)ccc1-c1ccc(C(C)=O)cc1
2. O=C(O)c1cc2ccc(C3OC(CO)C(O)C(O)C3O)cc2oc1=O (centres undefined)
3. CC1(C)CC(SCc2c(C(F)(F)F)nn(C(F)F)c2Cl)=NO1
4. CC(=O)N(C)N(C)c1ccc(CCn2cnc3cc(-c4ccc(Cl)cc4)sc3c2=O)cc1

["125 to 127 °C", "250 to 255 °C", "41 to 42 °C", "227 to 228 °C"]
